Species: Cavia porcellus
Test: Effective refractory period of contractile response in isolated guinea-pig papillary muscles at 1 Hz and 1 uM.
Format: functional, Muscle tissue
endpoint: Delta ERPc (%)
Report only the number, with the unit % understood.

Give the value of Delta ERPc reported for the following: COc1cc(Cl)c(CCN(C)CCOc2ccc(NS(C)(=O)=O)cc2Cl)cc1OC 22.4

---

Each item that follows carries a reported Delta ERPc.
Species on record: Cavia porcellus
Experiment: Effective refractory period of contractile response in isolated guinea-pig papillary muscles at 1 Hz and 1 uM.
Format: functional, Muscle tissue
Report only the number, with the unit % understood.

item_smiles	unit_name	Delta ERPc
COc1ccc(CCN(C)CCOc2ccc(NS(C)(=O)=O)cc2NC(C)=O)cc1OC	%	39.3
Cc1cccc(CCN2CCC(C(=O)c3ccc(NS(C)(=O)=O)cc3)CC2)n1	%	41.8
COc1cc(C)c(CCN(C)CCOc2ccc(NS(C)(=O)=O)cc2-n2cccc2)cc1OC	%	32.1
COc1ccc(CCN(C)CCOc2ccc(NS(C)(=O)=O)cc2OCc2ccccc2)cc1OC	%	26.3

// next item, Delta ERPc requested
Give the value of Delta ERPc reported for the following: COc1ccc(CCN(C)CCOc2ccc(NS(C)(=O)=O)cc2F)cc1OC 34.5

Origin of the recorded values: ChEMBL document CHEMBL1131702
